System: Scenedesmus acutus
assay text: Phytotoxicity against Scenedesmus acutus assessed as reduction in chlorophyll content by spectroscopy
Assay type: functional, organism-based
experimental parameters: read-out: pI50 (converted)
Cut-off 800 nM on IC50: below means 1 (yes), at or above means 0 (no).

[[record]]
molecule = "CC(C)COC(=O)c1cc(N2C(=O)C3=C(CCCC3)C2=O)ccc1Cl"
cat = "1 (yes)"

[[record]]
molecule = "CC(C)OC(=O)c1cc(N2C(=O)C3=C(CCCC3)C2=O)c(F)cc1Cl"
cat = "1 (yes)"

[[record]]
molecule = "O=C(O)c1cc(N2C(=O)C3=C(CCCC3)C2=O)c(F)cc1Cl"
cat = "1 (yes)"

[[record]]
molecule = "O=C1C2=C(CCCC2)C(=O)N1c1ccc(Cl)cc1F"
cat = "1 (yes)"

[[record]]
molecule = "CC(C)OC(=O)c1cc(N2C(=O)C3=C(CCCC3)C2=O)ccc1Cl"
cat = "0 (no)"

[[record]]
molecule = "CCOC(=O)c1cc(N2C(=O)C3=C(CCCC3)C2=O)ccc1Cl"
cat = "0 (no)"

[[record]]
molecule = "COC(=O)c1cc(N2C(=O)C3=C(CCCC3)C2=O)ccc1Cl"
cat = "0 (no)"

[[record]]
molecule = "CCCCCCCCOC(=O)c1cc(N2C(=O)C3=C(CCCC3)C2=O)ccc1Cl"
cat = "0 (no)"


###

Tested on: Scenedesmus acutus
assay text: Phytotoxicity against Scenedesmus acutus assessed as reduction in chlorophyll content by spectroscopy
Format: functional, organism-based
experimental parameters: read-out: pI50 (converted)
Form field: IC50 (one value per entry).
measurement type: IC50 (nM)

[[record]]
compound = "O=C(O)c1cc(N2C(=O)C3=C(CCCC3)C2=O)ccc1Cl"
unit_text = "nM"
censor_symbol = ">"
numeric_result = 100000

[[record]]
compound = "CC(C)COC(=O)c1cc(N2C(=O)C3=C(CCCC3)C2=O)c(F)cc1Cl"
unit_text = "nM"
censor_symbol = "="
numeric_result = 33.1

[[record]]
compound = "CCC(C)OC(=O)c1cc(N2C(=O)C3=C(CCCC3)C2=O)ccc1Cl (stereo unspecified)"
unit_text = "nM"
censor_symbol = "="
numeric_result = 794

[[record]]
compound = "CCCCOC(=O)c1cc(N2C(=O)C3=C(CCCC3)C2=O)c(F)cc1Cl"
unit_text = "nM"
censor_symbol = "="
numeric_result = 67.6

[[record]]
compound = "O=C(O)c1cc(Oc2ccc(C(F)(F)F)cc2Cl)ccc1[N+](=O)[O-]"
unit_text = "nM"
censor_symbol = "="
numeric_result = 1860

[[record]]
compound = "CCCOC(=O)c1cc(N2C(=O)C3=C(CCCC3)C2=O)ccc1Cl"
unit_text = "nM"
censor_symbol = "="
numeric_result = 1860


###

Form field: IC50 (one value per entry).
subject of test: Protoporphyrinogen IX oxidase (Zea mays, UniProt Q9FYV8)
Sequence (Q9FYV8 whole entry): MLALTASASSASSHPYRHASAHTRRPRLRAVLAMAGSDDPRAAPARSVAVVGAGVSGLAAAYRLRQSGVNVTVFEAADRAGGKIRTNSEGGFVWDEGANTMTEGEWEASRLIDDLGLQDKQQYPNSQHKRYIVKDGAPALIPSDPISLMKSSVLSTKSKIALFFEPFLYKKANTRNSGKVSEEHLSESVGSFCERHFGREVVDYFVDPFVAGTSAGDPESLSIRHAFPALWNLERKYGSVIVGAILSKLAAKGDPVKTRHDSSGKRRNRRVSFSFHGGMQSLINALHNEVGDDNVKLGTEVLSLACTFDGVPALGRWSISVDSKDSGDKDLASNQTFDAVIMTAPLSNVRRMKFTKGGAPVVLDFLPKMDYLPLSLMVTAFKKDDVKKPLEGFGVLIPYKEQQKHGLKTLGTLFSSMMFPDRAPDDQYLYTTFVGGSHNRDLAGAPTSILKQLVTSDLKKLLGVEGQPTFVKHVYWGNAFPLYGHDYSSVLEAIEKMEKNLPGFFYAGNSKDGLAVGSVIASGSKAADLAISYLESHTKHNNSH
assay text: Inhibition of protoporphyrinogen IX oxidase in Zea mays cv. Anjou (maize) seedlings homogenates assessed as protoporphyrinogen IX formation by spectrophotometry
experimental parameters: read-out: pI50 (converted)
measurement type: IC50 (nM)

[[record]]
compound = "CC(C)OC(=O)c1cc(N2C(=O)C3=C(CCCC3)C2=O)c(F)cc1Cl"
measurement_type = "IC50"
unit_text = "nM"
numeric_result = 1.38

[[record]]
compound = "O=C(O)c1cc(Oc2ccc(C(F)(F)F)cc2Cl)ccc1[N+](=O)[O-] [ACIFLUORFEN]"
measurement_type = "IC50"
unit_text = "nM"
numeric_result = 200

[[record]]
compound = "COC(=O)c1cc(N2C(=O)C3=C(CCCC3)C2=O)c(F)cc1Cl"
measurement_type = "IC50"
unit_text = "nM"
numeric_result = 11.2

[[record]]
compound = "O=C(O)c1cc(N2C(=O)C3=C(CCCC3)C2=O)ccc1Cl"
measurement_type = "IC50"
unit_text = "nM"
numeric_result = 1860

[[record]]
compound = "CCCCOC(=O)c1cc(N2C(=O)C3=C(CCCC3)C2=O)ccc1Cl"
measurement_type = "IC50"
unit_text = "nM"
numeric_result = 9.12

[[record]]
compound = "CCCCOC(=O)c1cc(N2C(=O)C3=C(CCCC3)C2=O)c(F)cc1Cl"
measurement_type = "IC50"
unit_text = "nM"
numeric_result = 8.91

[[record]]
compound = "CCCCCCCCOC(=O)c1cc(N2C(=O)C3=C(CCCC3)C2=O)ccc1Cl"
measurement_type = "IC50"
unit_text = "nM"
numeric_result = 25.1

[[record]]
compound = "CCCOC(=O)c1cc(N2C(=O)C3=C(CCCC3)C2=O)c(F)cc1Cl"
measurement_type = "IC50"
unit_text = "nM"
numeric_result = 3.89

[[record]]
compound = "CCC(C)OC(=O)c1cc(N2C(=O)C3=C(CCCC3)C2=O)c(F)cc1Cl (configuration not stated)"
measurement_type = "IC50"
unit_text = "nM"
numeric_result = 2.63

[[record]]
compound = "CCCOC(=O)c1cc(N2C(=O)C3=C(CCCC3)C2=O)ccc1Cl"
measurement_type = "IC50"
unit_text = "nM"
numeric_result = 2.19

[[record]]
compound = "O=C(O)c1cc(N2C(=O)C3=C(CCCC3)C2=O)c(F)cc1Cl"
measurement_type = "IC50"
unit_text = "nM"
numeric_result = 380

[[record]]
compound = "CC(C)COC(=O)c1cc(N2C(=O)C3=C(CCCC3)C2=O)ccc1Cl"
measurement_type = "IC50"
unit_text = "nM"
numeric_result = 4.79

[[record]]
compound = "COC(=O)c1cc(N2C(=O)C3=C(CCCC3)C2=O)ccc1Cl"
measurement_type = "IC50"
unit_text = "nM"
numeric_result = 8.91

[[record]]
compound = "CC(C)(C)OC(=O)c1cc(N2C(=O)C3=C(CCCC3)C2=O)ccc1Cl"
measurement_type = "IC50"
unit_text = "nM"
numeric_result = 28.2

[[record]]
compound = "CCCCCOC(=O)c1cc(N2C(=O)C3=C(CCCC3)C2=O)ccc1Cl"
measurement_type = "IC50"
unit_text = "nM"
numeric_result = 7.59

[[record]]
compound = "O=C1C2=C(CCCC2)C(=O)N1c1ccc(Cl)cc1F"
measurement_type = "IC50"
unit_text = "nM"
numeric_result = 3.72

[[record]]
compound = "CC(C)COC(=O)c1cc(N2C(=O)C3=C(CCCC3)C2=O)c(F)cc1Cl"
measurement_type = "IC50"
unit_text = "nM"
numeric_result = 4.9

